Tested on: Diet Induced Obese (DIO) C57BL/6 mice
ASSAY REMARKS: 10 day DIO mouse model, weight loss vs. vehicle
Type: in vivo
CONDITION NOTES: 240 h, 1.0 mpk sc once a day for 10 days
Description: The objective of this study design was to investigate the efficacy of disclosed compounds in a 10 day DIO mouse model. Effects on body weight, food intake, hematology and blood chemistry were the primary readouts of this study design. […] On Day −4 or −3, mice were randomized into study groups based on body weight and body weights were continued to be recorded daily for the duration of the study. […]
Structures can show the parent of a compound that is named as a salt.
Reported inhibition in vivo at 1 mg/kg by item:
Record the value in %, omitting the unit from your answer.

Study these solved cases before continuing.
compound=CO[C@@H]1[C@H](OC(=O)N[C@H](Cc2nc(=O)o[nH]2)C(C)C)CC[C@]2(CO2)[C@H]1[C@@]1(C)O[C@@H]1CC=C(C)C value_reported=14.1
compound=CNc1nnc(C[C@@H](NC(=O)O[C@@H]2CC[C@]3(CO3)[C@@H]([C@@]3(C)O[C@@H]3CC=C(C)C)[C@@H]2OC)C(C)C)o1 value_reported=1
compound=CO[C@@H]1[C@H](OC(=O)N[C@H](Cc2nnc(N)s2)C(C)C)CC[C@]2(CO2)[C@H]1[C@@]1(C)O[C@@H]1CC=C(C)C value_reported=2

Give reported inhibition in vivo at 1 mg/kg value for CO[C@@H]1[C@H](OC(=O)N[C@H](c2cn(C[C@@H]3CCCN3C)cn2)C(C)C)CC[C@]2(CO2)[C@H]1[C@@]1(C)O[C@@H]1CC=C(C)C [Example 14, formate]
10.3

Give reported inhibition in vivo at 1 mg/kg value for CC[C@@H](Cc1noc(=O)[nH]1)NC(=O)O[C@@H]1CC[C@]2(CO2)[C@@H]([C@@]2(C)O[C@@H]2CC=C(C)C)[C@@H]1OC
3.6

Give reported inhibition in vivo at 1 mg/kg value for CO[C@@H]1[C@H](OC(=O)N[C@@H](c2noc(=O)[nH]2)C(C)C)CC[C@]2(CO2)[C@H]1[C@@]1(C)O[C@@H]1CC=C(C)C
6.6

Give reported inhibition in vivo at 1 mg/kg value for CO[C@@H]1[C@H](OC(=O)N[C@H](Cc2nnc(N)o2)C(C)C)CC[C@]2(CO2)[C@H]1[C@@]1(C)O[C@@H]1CC=C(C)C
0.8

Give reported inhibition in vivo at 1 mg/kg value for CNc1nnc([C@@H](NC(=O)O[C@@H]2CC[C@]3(CO3)[C@@H]([C@@]3(C)O[C@@H]3CC=C(C)C)[C@@H]2OC)C(C)C)o1
4.6

====

EXPERIMENTAL SYSTEM: recombinant human MetAP2 (Homo sapiens)
Construct: Flag
ASSAY REMARKS: Recombinant human MetAP2 enzyme inhibition assay (MAS peptide / amino acid oxidase / Amplex Ultrared readout)
CONDITION NOTES: Flag tagged human recombinant MetAP2, 25 minutes at 25° C.
OBSERVED PROPERTY: IC50

compound="CO[C@@H]1[C@H](OC(=O)NCC(C)(C)c2cn(C[C@H]3CCCN3C)cn2)CC[C@]2(CO2)[C@H]1[C@@]1(C)O[C@@H]1CC=C(C)C [Example 38]" observed_property=IC50 value_reported="50 to 500 nM"
compound="CO[C@@H]1[C@H](OC(=O)N[C@H](c2ccc(N3CCC3)nc2)C(C)C)CC[C@]2(CO2)[C@H]1[C@@]1(C)O[C@@H]1CC=C(C)C [Example 41]" observed_property=IC50 value_reported="< 50 nM"
compound="CO[C@@H]1[C@H](OC(=O)N[C@@H](Cc2noc(=O)[nH]2)C(C)C)CC[C@]2(CO2)[C@H]1[C@@]1(C)O[C@@H]1CC=C(C)C [Example 27]" observed_property=IC50 value_reported="50 to 500 nM"

Attention now shifts to the item below.
Give reported IC50 value for CC[C@@H](Cc1noc(=O)[nH]1)NC(=O)O[C@@H]1CC[C@]2(CO2)[C@@H]([C@@]2(C)O[C@@H]2CC=C(C)C)[C@@H]1OC [Example 29]
< 50 nM

====

EXPERIMENTAL SYSTEM: recombinant human MetAP2 (Homo sapiens, UniProt P50579)
Construct: Flag
Sequence (P50579 whole entry): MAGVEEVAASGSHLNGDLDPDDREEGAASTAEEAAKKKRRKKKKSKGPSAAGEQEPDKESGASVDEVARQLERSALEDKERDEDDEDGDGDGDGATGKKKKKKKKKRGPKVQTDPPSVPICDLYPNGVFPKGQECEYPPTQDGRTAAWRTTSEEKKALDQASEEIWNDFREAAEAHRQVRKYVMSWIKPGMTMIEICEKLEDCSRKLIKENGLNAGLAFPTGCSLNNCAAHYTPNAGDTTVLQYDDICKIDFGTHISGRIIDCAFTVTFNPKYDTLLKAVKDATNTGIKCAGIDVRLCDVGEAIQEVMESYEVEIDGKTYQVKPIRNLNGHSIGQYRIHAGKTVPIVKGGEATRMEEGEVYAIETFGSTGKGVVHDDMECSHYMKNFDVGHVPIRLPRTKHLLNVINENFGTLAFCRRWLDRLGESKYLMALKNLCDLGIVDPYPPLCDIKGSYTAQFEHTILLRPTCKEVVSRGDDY
ASSAY REMARKS: Recombinant human MetAP2 enzyme inhibition assay (MAS peptide / amino acid oxidase / Amplex Ultrared readout)
CONDITION NOTES: Flag tagged human recombinant MetAP2, 25 minutes at 25° C.
pIC50: −log10 of the molar value. Where a name gives a salt, the structure may show the parent alone.
OBSERVED PROPERTY: pIC50

compound=CO[C@@H]1[C@H](OC(=O)N(C)[C@H](c2cn(CC(C)C)cn2)C(C)C)CC[C@]2(CO2)[C@H]1[C@@]1(C)O[C@@H]1CC=C(C)C value_reported="6.30 to 7.30"

Give reported pIC50 value for CO[C@@H]1[C@H](OC(=O)N[C@H](c2nccn2C[C@H]2CCCN2C)C(C)C)CC[C@]2(CO2)[C@H]1[C@@]1(C)O[C@@H]1CC=C(C)C [Example 5, formate]
6.30 to 7.30

Give reported pIC50 value for CO[C@@H]1[C@H](OC(=O)N[C@H](Cc2nnc(N)o2)C(C)C)CC[C@]2(CO2)[C@H]1[C@@]1(C)O[C@@H]1CC=C(C)C
> 7.30

====

EXPERIMENTAL SYSTEM: recombinant human MetAP2 (Homo sapiens)
Construct: Flag
ASSAY REMARKS: Recombinant human MetAP2 enzyme inhibition assay (MAS peptide / amino acid oxidase / Amplex Ultrared readout)
CONDITION NOTES: Flag tagged human recombinant MetAP2, 25 minutes at 25° C.
pIC50: −log10 of the molar value.
OBSERVED PROPERTY: pIC50

Study these solved cases before continuing.
structure_string=CO[C@@H]1[C@H](OC(=O)N[C@H](c2cn(C[C@H]3CCN(C)C3)cn2)C(C)C)CC[C@]2(CO2)[C@H]1[C@@]1(C)O[C@@H]1CC=C(C)C value_reported="> 7.30"
structure_string=CO[C@@H]1[C@H](OC(=O)N[C@H](c2noc(=O)[nH]2)C(C)C)CC[C@]2(CO2)[C@H]1[C@@]1(C)O[C@@H]1CC=C(C)C value_reported="6.30 to 7.30"
structure_string=CNc1nnc([C@@H](NC(=O)O[C@@H]2CC[C@]3(CO3)[C@@H]([C@@]3(C)O[C@@H]3CC=C(C)C)[C@@H]2OC)C(C)C)s1 value_reported="6.30 to 7.30"

Fill: pIC50 (recombinant human MetAP2 (Homo sapiens)) for this compound CO[C@@H]1[C@H](OC(=O)N[C@H](c2cn(C[C@@H]3CCN(C)C3)cn2)C(C)C)CC[C@]2(CO2)[C@H]1[C@@]1(C)O[C@@H]1CC=C(C)C
6.30 to 7.30

Fill: pIC50 (recombinant human MetAP2 (Homo sapiens)) for this compound CO[C@@H]1[C@H](OC(=O)N[C@H](c2ncc[nH]2)C(C)C)CC[C@]2(CO2)[C@H]1[C@@]1(C)O[C@@H]1CC=C(C)C
> 7.30

Fill: pIC50 (recombinant human MetAP2 (Homo sapiens)) for this compound CO[C@@H]1[C@H](OC(=O)N[C@H](c2ccc(N3CC(F)(F)C3)nc2)C(C)C)CC[C@]2(CO2)[C@H]1[C@@]1(C)O[C@@H]1CC=C(C)C
6.30 to 7.30

====

EXPERIMENTAL SYSTEM: recombinant human MetAP2 (Homo sapiens, UniProt P50579)
Construct: Flag
ASSAY REMARKS: Recombinant human MetAP2 enzyme inhibition assay (MAS peptide / amino acid oxidase / Amplex Ultrared readout)
CONDITION NOTES: Flag tagged human recombinant MetAP2, 25 minutes at 25° C.
Description: Compounds are tested for their capacity to inhibit recombinant human MetAP2 activity using the following assay. Flag tagged Human recombinant MetAP2 expressed and isolated for use as the enzyme source. […] The plate was sealed with a TopSeal A cover and mixed briefly on an orbital mixer at 900 rpm. […] The plate was transferred to an Envision Multi-label reader and RFU measured corresponding to excitation 531 nm and emission 595 nm. […]
Reported IC50 by item:

structure_string=CO[C@@H]1[C@H](OC(=O)N[C@@H](C)Cc2noc(=O)[nH]2)CC[C@]2(CO2)[C@H]1[C@@]1(C)O[C@@H]1CC=C(C)C experimental_system="recombinant human MetAP2 (Homo sapiens, UniProt P50579)" observed_property=IC50 value_reported="< 50 nM"
structure_string=CO[C@@H]1[C@H](OC(=O)N[C@H](c2nnc(N)o2)C(C)C)CC[C@]2(CO2)[C@H]1[C@@]1(C)O[C@@H]1CC=C(C)C experimental_system="recombinant human MetAP2 (Homo sapiens, UniProt P50579)" observed_property=IC50 value_reported="< 50 nM"
structure_string=CNc1nnc([C@@H](NC(=O)O[C@@H]2CC[C@]3(CO3)[C@@H]([C@@]3(C)O[C@@H]3CC=C(C)C)[C@@H]2OC)C(C)C)o1 experimental_system="recombinant human MetAP2 (Homo sapiens, UniProt P50579)" observed_property=IC50 value_reported="< 50 nM"
structure_string=CO[C@@H]1[C@H](OC(=O)NCC(C)(C)c2nnc[nH]2)CC[C@]2(CO2)[C@H]1[C@@]1(C)O[C@@H]1CC=C(C)C experimental_system="recombinant human MetAP2 (Homo sapiens, UniProt P50579)" observed_property=IC50 value_reported="50 to 500 nM"

Give reported IC50 value for CO[C@@H]1[C@H](OC(=O)N[C@H](c2cn(CC(C)C)cn2)C(C)C)CC[C@]2(CO2)[C@H]1[C@@]1(C)O[C@@H]1CC=C(C)C
< 50 nM

Give reported IC50 value for CO[C@@H]1[C@H](OC(=O)N[C@H](c2cn(C[C@H]3CCN(CC(F)F)C3)cn2)C(C)C)CC[C@]2(CO2)[C@H]1[C@@]1(C)O[C@@H]1CC=C(C)C
50 to 500 nM
